biological target: Histone deacetylase 3 (Homo sapiens, UniProt O15379); test: Inhibition of human recombinant HDAC3 at 1 uM measured after 30 mins by fluorescence based microplate assay relative to control
Sequence (O15379 whole entry): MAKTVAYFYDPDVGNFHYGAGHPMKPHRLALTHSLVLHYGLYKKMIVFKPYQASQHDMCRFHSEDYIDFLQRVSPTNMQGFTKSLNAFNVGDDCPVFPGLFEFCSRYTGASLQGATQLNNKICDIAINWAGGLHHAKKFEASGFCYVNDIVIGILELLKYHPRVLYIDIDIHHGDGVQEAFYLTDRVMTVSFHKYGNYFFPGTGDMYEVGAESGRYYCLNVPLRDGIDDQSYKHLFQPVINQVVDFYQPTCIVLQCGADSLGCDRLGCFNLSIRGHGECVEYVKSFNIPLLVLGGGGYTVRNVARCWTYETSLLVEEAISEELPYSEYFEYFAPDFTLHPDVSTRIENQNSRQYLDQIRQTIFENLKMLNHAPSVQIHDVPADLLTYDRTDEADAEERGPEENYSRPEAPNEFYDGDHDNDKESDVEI
inhibition for assorted compounds

> print(dat)
                    entry.smiles  observed.result
1  CCCNNC(=O)c1cnc(Nc2ccccc2)cn1            > 70%

Fetch value of inhibition on Histone deacetylase 3 (Homo sapiens, UniProt O15379) for CCCNNC(=O)c1cnc(NCc2ccc(OC)cc2)cn1 . > 70%

Specify the recorded inhibition for CCCNNC(=O)c1cnc(NC(=O)c2ccc3ncccc3c2)cn1 , system: Histone deacetylase 3 (Homo sapiens, UniProt O15379). > 70%

GET inhibition where system = Histone deacetylase 3 (Homo sapiens, UniProt O15379) and item = CCCCNNC(=O)c1cnc(NCc2ccc(OC)cc2)cn1 > 70%

Find the measured inhibition of CCCCNNC(=O)c1cnc(NCc2ccccc2)cn1 with Histone deacetylase 3 (Homo sapiens, UniProt O15379) as test system. > 70%

State measured inhibition of the compound CCCNNC(=O)c1cnc(NC(=O)c2ccc3[nH]ccc3c2)cn1 with Histone deacetylase 3 (Homo sapiens, UniProt O15379). > 70%

Find the measured inhibition of CCCNNC(=O)c1cnc(NCc2ccccc2)cn1 with Histone deacetylase 3 (Homo sapiens, UniProt O15379) as test system. > 70%
